Where do the numbers come from? From patent US20240383915A1.

- Test target: KRas(G12V) (Homo sapiens (Human), UniProt P01116, G12V)
- Sequence (P01116-2 other isoform, or with tags, fused parts or gaps G12V): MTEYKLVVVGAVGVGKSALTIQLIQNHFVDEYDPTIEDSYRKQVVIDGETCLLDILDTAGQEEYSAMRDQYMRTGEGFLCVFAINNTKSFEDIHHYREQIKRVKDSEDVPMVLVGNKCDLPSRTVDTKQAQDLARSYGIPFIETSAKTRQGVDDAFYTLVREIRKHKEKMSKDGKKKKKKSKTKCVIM
- Measurement description: KRas(G12V) GDP HTRF (BODIPY-GDP exchange TR-FRET)
A collection of compounds and their measured pIC50
Scale note: pIC50 = -log10(concentration in M).

# example entries with known answers
>  <Compound>
Cc1cc(N)nc(-c2cc3ncnc4c3c(c2Cl)OCCN4C(c2cccnc2N)C2CC2)c1C(F)(F)F (stereo not drawn)

>  <Measurement kind>
pIC50

>  <Value reported>
8.09

$$$$
>  <Compound>
Cc1cc(N)nc(-c2c(Cl)c3c4c(nc(OC[C@@]56CCCN5C[C@H](F)C6)nc4c2F)N([C@@H](C)c2nccnc2N)CCO3)c1C(F)(F)F (atropisomer, axis not shown; (aS))

>  <Measurement kind>
pIC50

>  <Value reported>
8.09

$$$$

// next entry
[in] Entry Cc1cc(N)nc(-c2cc3nc(OC[C@@]45CCCN4C[C@H](F)C5)nc4c3c(c2Cl)OCCN4Cc2ccn[nH]2)c1C(F)(F)F : reported pIC50 = ?
[out] 8.05
